Record form. Attribute: VNA titer. Fill in for each entry.
Molecular target: HA of B/Brisbane/60/2008 (Victoria) (influenza B virus)
Experiment: cell-based or functional assay
Give bare numbers, in nM.

{"columns": ["binder", "VNA titer [nM]"],
 "data": [
  ["SD1085 (VHH) VHH: EVQLVESGGGLVQAGDSLRLSCVISGLSLDTYAVGWFRQAPGKEREGITCISSGHGMTYYADSVKGRFTVSTDNAKNTVYLQMNGLQPEDTARYYCATESRYYCSDNWPAPQRYIYWGQGTQVTVSS", 40.7]
]}

// next entry
Q) For SD1086 (VHH) VHH: EVQLVESGGGLVQAGGSLRLSCTASGSISSIDYMRWYRQYPGKHRELVATITSGGAADSRDSVKGRFTVSRGNAANTMYLQMNNLKPEDTAVYYCNAYGLEIGAHWGRGTQVTVSS , write its VNA titer.
A) 827

The origin of these recorded values is patent US20190359693A1.
